assay: soluble on expression in E. coli; label from the status in PepcDB or PDB records
measured.endpoint: soluble on expression in E. coli

| biosequence | result.value |
| --- | --- |
| STNLRAWLYQGDHCLESRQSEAGVTRLNGKSPAAVLAEVTTDWREENTPVVMAGMVGSNVGWKVAPYLSVPARFSSIGEQLTSVGDNIWIIPGLCVSHDDNHNVMRGEETQLIGARALAPSSLYVMPGTHCKWVQADSQQINDFRTVMTGELHHLLLNHSLIGAGLPPQENSADAFAAGLERGLNAPAILPQLFEVRASHVLGTLPREQVSEFLSGLLIGAEVASMRDYVTHQHAITLVAGTSLTARYQQAFQAMGCDVAAVAGDTAFQAGIRSIAHAVAN | not soluble |
| MGSDKIHHHHHHMERLPTTPHDAVFRQMLMQKEVARDFLAIHMPEDFLAICDLDSLKLESGSFVEDNLRSRYSDILYSLHTQHGPGYVYALIEHQSKSDRLMAFRLMRYAIAAMQRHLDAGHDTLPLVVPILFYHGPESPWPYSLNWHNMFVKPDMAKALYSRDFALVDLTTMPDNQLLQHRRIAMLELLQKHIRQRDLSELLDPLITLLTQDHLTDAQLSVLINYMLKAGNAAEPGALIRQLAQGAPQYKEQLMTIAEWLEEKGRTEGLQKGLQKGLEQGLAQGREAEARAIARKMLANGLEPGLIASVTGITPEELSTLSH | not soluble |

* * *

assay: soluble on expression in E. coli; label from the status in PepcDB or PDB records
measured.endpoint: soluble on expression in E. coli

Consider the following illustrative entries.
| biosequence | soluble on expression in E. coli |
| --- | --- |
| MVKTMKCKFCDKKSYIKLKSPKMYLCKEHFVEYFENKVKKSIDKYKMLSKDEKILVAVSGGKDGHAAAWVLKKLGYNIELFHINLGIEGFSEESLKAVKELAEKLEVPLHVVNLKDITGKTMEDIRGKKCSICGTTKRYLMNKFGYENGFDVIVTGHNLDDEVSFILNNLFNWNIRYLAKHEPVLPAHDKFLKKVKIFFEIEEELILKYAEAEEIPYTTVECKYAERAITLKHRAYLNELEKERPGIKYQFLSGYMKNRHLFKVEEEDFQFRECEVCGMTSAGKICSFCRVWKLYKKKKENRN | soluble |
| MSLNRQSKAAVPALREISPVKQQVSEEKKEIQEDSSILVDLKGAVQKEGVYKLTASSRVRDVIELAGGLTSEADKHAINFAEKLTDEQVVYVPKQGEEISVLPRSLVSGKKETASKDQSKVHINKASLEELQHIPGIGAKRAQDIIDMRDKLGGFKALEDLRQVSGIGEKTLEKLKDDIFLDEGHHHHHH | soluble |
| MSLQQQPPGTPKSTHGAWSVICDKPAGASEEQCALMQNVIADDRPEVGLSVVILKTADRKSRILRILAPLGVLLKDGMELYIDNNNIGRAYFTRCFSEGCYVEVDIDDELLKVLRAGKNAVFALRESVDQDRVGIPIELSGFAEGYDALPEGHHHHHH | not soluble |
| IHTSPYSKDAPLVASLSVNQKITGRNSEKDVRHIEIDLGDSGLRYQPGDALGVWYQNDPALVKELVELLWLKGDEPVTVEGKTLPLNEALQWHFELTVNTANIVENYATLTRSETLLPLVGDKAKLQHYAATTPIVDMVRFSPAQLDAEALINLLRPLTPRLYSIASSQAEVENEVHVTVGVVRYDVEGRARAGGASSFLADRVEEEGEVRVFIEHNDNFRLPANPETPVIMIGPGTGIAPFRAFMQQRAADEAPGKNWLFFGNPHFTEDFLYQVEWQRYVKEGVLTRIDLAWSRDQKEKVYVQDKLREQGAELWRWINDGAHIYVCGDANRMAKDVEQALLEVIAEFGGMDTEAADEFLSELRVERRYQRDVY | soluble |
| MGSDKIHHHHHHMWQFPLFETILIEQGQAKNISYHQQRYEKSLLKFYPKMKLQPFDLAKIIAKHTALFTHREGLIRCRIDYNHHDYVLQCFPYQQKVYRTFKPVFCDHIDYSLKFSDRTLLNNLLKQKEECDEIMIIRQGKVTDCSIGNLIFRQNNQWITPDKPLLEGTQRAKLLEQKKIIAREIFFEDLAQYEEIRLINAMNGL | not soluble |

Need soluble on expression in E. coli for each of these sequences.
1. MTVNDKKRLAIIGGGPGGLAAARVFSQSLPNFEIEIFVKDYDIGGVWHYPEQKSDGRVMYDHLETNISKKLMQFSGFPFEENVPLYPSRRNIWEYLKAYYKTFIANKDAISIHFSTEVTYLKKKNSQWEITSKDELRTTKSDFDFVIVASGHYSVPKLPTNIAGLDLWFDNKGAFHSKDFKNCEFAREKVVIVVGNGSSGQDIANQLTTVAKKVYNSIKEPASNQLKAKLIETVQTIDSADWKNRSVTLSDGRVLQNIDYIIFATGYYYSFPFIEPSVRLEVLGEGVTGDKHSSVNLHNLWEHMIYVKDPTLSFILTPQLVIPFPLSELQAAIMVEVFCKSLPITTTFDSNACGTHNFPKERTWNTMQNYRNY
2. MGSDKIHHHHHHMALIEVQNLKKYFPVKQGPIDVLLRKPRKFVKAVDGVNFQIDEGKSLGLVGESGSGKTTTGRVILRLEEPTDGKIIFDGRDITKLSKEEMRKLRKEMQIIFQDPMASLNPYMRVGKAIEHALEIHGIGDRSSRKEMVLEMLRRVNLEPAEDIYRRYPRELSGGQRQRVVIARALILKPRLVVADEAVAMLDVSVRSQLLRLLQELRKEFNLTMLFITHDLATTKYVCDEIAVMYLGKIVEIGDFEDIYLNPKHPYTQALISAVPEPSLKKKKKFIPEGETPNPIDVPSGCRFHPRCPYRMDICMKEEPQLKAVEENHKVACHLYN
3. MSLIYFETERLIARDYLERDYLPFSQMNADEEVMKYFPARLTQVESNALLDRNQKELTSLGYGLFAIEVKSTNEFIGFTGLHEATFEAEFTPCIEIGWRLKRSAWNQGFATEAALGVLAFAKGITAINEIYSFTATCNKPSEKVMRKIHLTKIADFEHPALINGNPLKPHVLYKAEGHHHHHH

soluble
not soluble
not soluble
